Biological target: T1, native human ApoC3 (human, UniProt P02656 21-99, biotinylated in the captured-antigen assays (Tables 6 and 8); sites not stated)
T1 construct: also called nhuApoC3; native huApoC3
T1 sequence (P02656 21-99): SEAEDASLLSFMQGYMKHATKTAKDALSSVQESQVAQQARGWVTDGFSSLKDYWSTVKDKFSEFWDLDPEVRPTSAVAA
Assay: SPR, IgG captured via anti-human Fc, ApoC3 analyte 50 nM
Below, each of the binders is paired with its reported koff value.
Provide the reading as a plain figure in s⁻¹.

Example results:
>  <binder>
5E5 WT IgG (antibody, V domains shown, Full-length IgG captured by an anti-human Fc antibody) VH: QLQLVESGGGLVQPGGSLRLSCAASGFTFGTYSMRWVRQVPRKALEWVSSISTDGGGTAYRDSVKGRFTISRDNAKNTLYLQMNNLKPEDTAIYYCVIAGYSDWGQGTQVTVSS VL: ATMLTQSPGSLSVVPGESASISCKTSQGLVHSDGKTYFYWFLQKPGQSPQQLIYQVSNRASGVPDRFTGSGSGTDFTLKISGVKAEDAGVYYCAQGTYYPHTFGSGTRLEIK

>  <experimentalValue>
0.000114

$$$$
>  <binder>
29A05 IgG (antibody, V domains shown) VH: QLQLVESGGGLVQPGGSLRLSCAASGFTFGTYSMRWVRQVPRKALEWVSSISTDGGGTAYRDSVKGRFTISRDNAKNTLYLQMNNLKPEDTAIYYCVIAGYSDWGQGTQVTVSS VL: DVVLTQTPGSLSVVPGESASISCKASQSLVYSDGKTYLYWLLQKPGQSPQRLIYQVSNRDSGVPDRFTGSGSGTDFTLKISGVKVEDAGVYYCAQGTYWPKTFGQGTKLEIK

>  <experimentalValue>
0.00126

$$$$
>  <binder>
29G02 IgG (antibody, V domains shown) VH: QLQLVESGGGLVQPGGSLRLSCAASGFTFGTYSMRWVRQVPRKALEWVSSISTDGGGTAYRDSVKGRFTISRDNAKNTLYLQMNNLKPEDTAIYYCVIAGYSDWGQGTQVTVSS VL: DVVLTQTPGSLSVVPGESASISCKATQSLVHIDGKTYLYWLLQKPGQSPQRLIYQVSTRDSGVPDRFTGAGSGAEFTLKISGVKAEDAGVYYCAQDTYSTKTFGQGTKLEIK

>  <experimentalValue>
0.000718

$$$$
>  <binder>
29A06 IgG (antibody, V domains shown) VH: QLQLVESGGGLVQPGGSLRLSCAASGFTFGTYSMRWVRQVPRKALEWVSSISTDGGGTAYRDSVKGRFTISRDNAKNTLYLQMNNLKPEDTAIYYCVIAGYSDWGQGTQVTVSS VL: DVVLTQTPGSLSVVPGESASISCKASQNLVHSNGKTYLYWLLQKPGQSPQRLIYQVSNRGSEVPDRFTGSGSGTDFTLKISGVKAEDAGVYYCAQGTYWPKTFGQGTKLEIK

>  <experimentalValue>
0.000314

$$$$
>  <binder>
29F10 IgG (antibody, V domains shown) VH: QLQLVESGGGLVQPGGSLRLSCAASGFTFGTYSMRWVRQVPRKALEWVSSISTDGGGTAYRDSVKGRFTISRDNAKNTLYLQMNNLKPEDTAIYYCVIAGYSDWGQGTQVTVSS VL: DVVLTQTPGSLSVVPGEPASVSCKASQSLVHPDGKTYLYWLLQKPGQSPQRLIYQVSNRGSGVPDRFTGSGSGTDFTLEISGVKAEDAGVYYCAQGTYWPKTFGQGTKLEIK

>  <experimentalValue>
0.000246

$$$$

Note: attention shifts to another entry.
Entry 29G11 IgG (antibody, V domains shown) VH: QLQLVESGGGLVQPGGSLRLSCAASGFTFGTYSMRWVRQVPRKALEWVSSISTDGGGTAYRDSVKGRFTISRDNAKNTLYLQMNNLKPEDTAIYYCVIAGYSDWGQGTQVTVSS VL: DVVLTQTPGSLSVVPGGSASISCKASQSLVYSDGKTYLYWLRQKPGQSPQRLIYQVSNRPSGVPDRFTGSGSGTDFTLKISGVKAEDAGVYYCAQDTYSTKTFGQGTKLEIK : reported koff = ? 0.00115
